Values were extracted from the supplement of paper PMC8728848.

Biological target: Neu5Ac(a2-3)Gal(b1-3)GalNAc(b1-4)[Neu5Ac(a2-3)]Gal(b1-4)Glc
Experiment: glycan array binding signal (z-score within array); higher = stronger binding
Conditions: glycan notation: IUPAC condensed, linker removed
Many of the other results were omitted from the sample, so the strongest signals are more common in it than they were.
parameter measured: glycan array binding signal (z-score)
Give bare numbers.

Ask: Bench note: what glycan array binding signal (z-score) did SefD (Salmonella enterica), Q9L6K6 (protein) GAYIIRGQNNSAHKLRIRIGGEDWQPDNSGIGMVSHSDFTNEFNIYYFGNGDIPVDTYLISIYATEIEL show?
Result: -0.395
